Data origin: patent US11840528B2

Measured Efficacy (GABA) %, listed per entry for reference.
Target: h-GABA-A α5β3γ2 (Homo sapiens, UniProt P18507+P31644)
Assay: Two-electrode voltage clamp electrophysiology in Xenopus laevis oocytes expressing GABAA receptors, modulation of GABA EC20 current
Type: cell-based
Set-up: host or cells: Xenopus laevis oocytes micro-injected with RNA transcripts of the subunits
Conditions: % modulation of GABA EC20 = 100*(Fold increase-1); Table 1
Numbers only; they are read as %.

Exercise: I have this compound here, Cc1ccc(-c2noc(C)c2Cn2ncc(N3CC[C@H](C(=O)NC4CC4)C3)cc2=O)cn1 [Example 57] , and I need its recorded Efficacy (GABA) %.
Key: 198

Exercise: I have this compound here, COc1ccc(-c2cnn(Cc3c(-c4ccc(C)nc4)noc3C)c(=O)c2)cn1 [Example 81] , and I need its recorded Efficacy (GABA) %.
Key: 123

Exercise: I have this compound here, Cc1cc(-c2noc(C)c2Cn2ncc(N3CC4(CCCO4)C3)cc2=O)no1 [Example 142] , and I need its recorded Efficacy (GABA) %.
Key: 48

---

Target: h-GABA-A α5β3γ2 (Homo sapiens, UniProt P18507+P31644)
Test: Two-electrode voltage clamp electrophysiology in Xenopus laevis oocytes expressing GABAA receptors, modulation of GABA EC20 current
Assay type: cell-based
Set-up: host or cells: Xenopus laevis oocytes micro-injected with RNA transcripts of the subunits
Conditions: % modulation of GABA EC20 = 100*(Fold increase-1); Table 1
metric_name: Efficacy (GABA) % (%)
Numbers only; they are read as %.

Exercise: I have this compound here, COc1ncccc1N1CCN(c2cnn(Cc3c(-c4ccc(C)nc4)noc3C)c(=O)c2)CC1 , and I need its recorded Efficacy (GABA) %.
Key: 146

Others:
Exercise: I have this compound here, Cc1ccc(-c2noc(C)c2Cn2ncc(N3CC4(CN(C)C4)C3)cc2=O)cn1 , and I need its recorded Efficacy (GABA) %.
Key: 245

Exercise: I have this compound here, Cc1ccc(-c2noc(C)c2Cn2ncc(N3CC4(C[C@@H](F)CO4)C3)cc2=O)cn1 , and I need its recorded Efficacy (GABA) %.
Key: 86

Exercise: I have this compound here, Cc1ccc(-c2noc(C)c2Cn2ncc(N3CCN(C(=O)C4(C)CC4)CC3)cc2=O)cn1 , and I need its recorded Efficacy (GABA) %.
Key: 222

Exercise: I have this compound here, Cc1ccc(-c2noc(C)c2Cn2ncc(N3CC4(C[C@H](OC(F)F)CO4)C3)cc2=O)nn1 , and I need its recorded Efficacy (GABA) %.
Key: 130

Exercise: I have this compound here, Cc1onc(-c2ccc(Cl)nc2)c1Cn1ncc(N2CC3(C[C@H](F)CO3)C2)cc1=O , and I need its recorded Efficacy (GABA) %.
Key: 104

Exercise: I have this compound here, Cc1onc(-c2ccc(Cl)cn2)c1Cn1ncc(N2CCN(C(=O)C3(C)CC3)CC2)cc1=O , and I need its recorded Efficacy (GABA) %.
Key: 139

Exercise: I have this compound here, Cc1ccc(-c2noc(C)c2Cn2ncc(N3CC(O)(C(F)(F)F)C3)cc2=O)cn1 , and I need its recorded Efficacy (GABA) %.
Key: 226

Exercise: I have this compound here, CCOC1CN(c2cnn(Cc3c(-c4ccc(Cl)nc4)noc3C)c(=O)c2)C1 , and I need its recorded Efficacy (GABA) %.
Key: 118

---

Measured Efficacy (GABA) %, listed per entry for reference.
Target: h-GABA-A α5β3γ2 (Homo sapiens, UniProt P18507+P31644)
Experiment: Two-electrode voltage clamp electrophysiology in Xenopus laevis oocytes expressing GABAA receptors, modulation of GABA EC20 current
Assay type: cell-based
Parameters: host or cells: Xenopus laevis oocytes micro-injected with RNA transcripts of the subunits
Details: % modulation of GABA EC20 = 100*(Fold increase-1); Table 1
Numbers only; they are read as %.

Exercise: I have this compound here, Cc1onc(-c2ccc(Cl)nc2)c1Cn1ncc(N2CC(OC(C)C(F)(F)F)C2)cc1=O (single isomer, unassigned) [Example 265] , and I need its recorded Efficacy (GABA) %.
Key: 155

Exercise: I have this compound here, Cc1ccc(-c2noc(C)c2Cn2ncc(-c3ccc(OC(C)C)nc3)cc2=O)cn1 [Example 190] , and I need its recorded Efficacy (GABA) %.
Key: 146

Exercise: I have this compound here, Cc1ccc(-c2noc(C)c2Cn2ncc(N3CC4(CCCCC4)C3)cc2=O)cn1 [Example 195] , and I need its recorded Efficacy (GABA) %.
Key: 118

Others:
Exercise: I have this compound here, Cc1ccc(-c2noc(C)c2Cn2ncc(N3CCN[C@@H](C)C3)cc2=O)cn1 [Example 51] , and I need its recorded Efficacy (GABA) %.
Key: 182

Exercise: I have this compound here, Cc1ccc(-c2noc(C)c2Cn2ncc(N3C[C@@H](C)N[C@@H](C)C3)cc2=O)cn1 [Example 93] , and I need its recorded Efficacy (GABA) %.
Key: 125

Exercise: I have this compound here, CNc1cnn(Cc2c(-c3ccc(C)nc3)noc2C)c(=O)c1 [Example 78] , and I need its recorded Efficacy (GABA) %.
Key: 92

Exercise: I have this compound here, COc1cc(-c2cnn(Cc3c(-c4ncc(C(F)(F)F)cn4)noc3C)c(=O)c2)ccn1 [Example 228] , and I need its recorded Efficacy (GABA) %.
Key: 41

Exercise: I have this compound here, Cc1onc(-c2ccc(Cl)nn2)c1Cn1ncc(N2CC(OC(C)(C)C)C2)cc1=O [Example 271] , and I need its recorded Efficacy (GABA) %.
Key: 90

---

Measured pKi, listed per entry for reference.
Target: h-GABA-A α5β3γ2 (Homo sapiens, UniProt P18507+P31644)
Assay: [3H]flumazenil competition binding assay, membranes of HEK293 cells expressing GABAA receptors
Conditions: displacement of [3H]-Flumazenil 0.5 nM, HEK293 cells expressing human receptors, mean of two determinations; Table 1
Recall that pKi is obtained by taking minus log10 of the concentration measured in molar.

Illustrative cases are given below, each with its answer.
Exercise: Form: Entry = Cc1ccc(-c2noc(C)c2Cn2ncc(N3CC(C#N)C3)cc2=O)cn1 [Example 85] | System = h-GABA-A α5β3γ2 (Homo sapiens, UniProt P18507+P31644) | pKi = ____
Key: 7.74

Exercise: Form: Entry = Cc1ccc(-c2noc(C)c2Cn2ncc(N3CC[C@H](C(C)(C)O)C3)cc2=O)cn1 [Example 120] | System = h-GABA-A α5β3γ2 (Homo sapiens, UniProt P18507+P31644) | pKi = ____
Key: 8.14

Others:
Exercise: Form: Entry = Cc1cc(-c2noc(C)c2Cn2ncc(N3C[C@@H](C)O[C@@H](C)C3)cc2=O)no1 [Example 62] | System = h-GABA-A α5β3γ2 (Homo sapiens, UniProt P18507+P31644) | pKi = ____
Key: 9.22

Exercise: Form: Entry = Cc1ccc(-c2noc(C)c2Cn2ncc(N3CC4(CCCCCO4)C3)cc2=O)nn1 [Example 316] | System = h-GABA-A α5β3γ2 (Homo sapiens, UniProt P18507+P31644) | pKi = ____
Key: 8.37

---

Biological target: h-GABA-A α5β3γ2 (Homo sapiens, UniProt P18507+P31644)
Experiment: [3H]flumazenil competition binding assay, membranes of HEK293 cells expressing GABAA receptors
Conditions: displacement of [3H]-Flumazenil 0.5 nM, HEK293 cells expressing human receptors, mean of two determinations; Table 1
Mark Y only for Ki values smaller than 6 nM; exact matches and larger values are N.

Exercise: Input Cc1ccc(-c2noc(C)c2Cn2ncc(N3CC(Oc4ccc(Cl)cn4)C3)cc2=O)cn1 [Example 130] ; condition: Ki strictly below 6 nM. Does it hold?
Key: N

Others:
Exercise: Input Cc1onc(-c2ncc(C(F)(F)F)cn2)c1Cn1ncc(N2CC3(CCC(F)CO3)C2)cc1=O (single isomer, unassigned) [Example 332] ; condition: Ki strictly below 6 nM. Does it hold?
Key: Y

Exercise: Input Cc1onc(-c2ccc(Cl)nc2)c1Cn1ncc(N2CCN3C(=O)CCC3C2)cc1=O (stereo not shown) [Example 223] ; condition: Ki strictly below 6 nM. Does it hold?
Key: N

Exercise: Input Cc1ccc(-c2noc(C)c2Cn2ncc(N3CC4(C[C@H](OC(F)F)CO4)C3)cc2=O)cn1 [Example 204] ; condition: Ki strictly below 6 nM. Does it hold?
Key: N

Exercise: Input Cc1ccc(-c2noc(C)c2Cn2ncc(N3CC4(CC(C)CO4)C3)cc2=O)nn1 (single isomer, unassigned) [Example 240] ; condition: Ki strictly below 6 nM. Does it hold?
Key: Y

Exercise: Input CCn1nccc1C1CCN(c2cnn(Cc3c(-c4ccc(C)nc4)noc3C)c(=O)c2)CC1 [Example 167] ; condition: Ki strictly below 6 nM. Does it hold?
Key: Y

Exercise: Input CC(=O)N(C)[C@H]1CCN(c2cnn(Cc3c(-c4ccc(C)nc4)noc3C)c(=O)c2)C1 [Example 1] ; condition: Ki strictly below 6 nM. Does it hold?
Key: N
